# System: Abutilon theophrasti (ABUTH)
# assay_comment: Biological Example 1A glasshouse assay, post-emergence application
# Assay type: in vivo
# test_conditions: 312 h, 250 g/ha, 13 days after application, read-out: Percentage phytotoxicity ABUTH
parameter_measured: pest or weed control at 250 g/ha
Write the numeric value and append its unit.

compound: CC#Cc1cc(F)c(C2C(=O)CC3(CCOCC3)CC2=O)c(OC)c1
pest or weed control at 250 g/ha: 0%
--
compound: CC#Cc1cc(F)c(C2C(=O)CC(CC(C)SC)CC2=O)c(OC)c1 (stereo not shown)
pest or weed control at 250 g/ha: 0%

The recorded pest or weed control at 250 g/ha for entry CC#Cc1cc(F)c(C2C(=O)C(C)(C)OC(C)(C)C2=O)c(OC)c1 equals 0%

Entry CC#Cc1cc(F)c(C2C(=O)CCC2=O)c(OC)c1 — recorded pest or weed control at 250 g/ha = 30%

pest or weed control at 250 g/ha for CC#Cc1cc(F)c(C2C(=O)C3C(C2=O)[C@H]2CC[C@@H]3O2)c(OC)c1 (stereo partly shown) is 70%

For record CC#Cc1cc(F)c(C2C(=O)CC(CCSC)CC2=O)c(OC)c1 (stereo not shown) the listed pest or weed control at 250 g/ha is 10%

The measured pest or weed control at 250 g/ha associated with C#Cc1cc(F)c(C2C(=O)CC3(CCOCC3)CC2=O)c(OC)c1 reads 0%

* * *

# Tested on: Amaranthus retroflexus (AMARE)
# assay_comment: Biological Example 1A glasshouse assay, post-emergence application
# Type: in vivo
# test_conditions: 312 h, 250 g/ha, 13 days after application, read-out: Percentage phytotoxicity AMARE
parameter_measured: pest or weed control at 250 g/ha (%)
Use % as the unit, but write only the number.

compound: CC#Cc1cc(F)c(C2C(=O)CC(CC(C)SC)CC2=O)c(OC)c1 (stereo not shown)
pest or weed control at 250 g/ha / %: 0
--
compound: CC#Cc1cc(F)c(C2C(=O)CC3(CCOCC3)CC2=O)c(OC)c1
pest or weed control at 250 g/ha / %: 10
--
compound: CC#Cc1cc(F)c(C2C(=O)C3C(C2=O)[C@H]2CC[C@@H]3O2)c(OC)c1 (stereo partly shown)
pest or weed control at 250 g/ha / %: 10
--
compound: CC#Cc1cc(F)c(C2C(=O)CCC2=O)c(OC)c1
pest or weed control at 250 g/ha / %: 20
--
compound: CC#Cc1cc(F)c(C2C(=O)C(C)(C)OC(C)(C)C2=O)c(OC)c1
pest or weed control at 250 g/ha / %: 0
--
compound: C#Cc1cc(F)c(C2C(=O)CC3(CCOCC3)CC2=O)c(OC)c1
pest or weed control at 250 g/ha / %: 0

Continue with the compound presented below.
Measured pest or weed control at 250 g/ha of CC#Cc1cc(F)c(C2C(=O)CC(CCSC)CC2=O)c(OC)c1 (stereo not shown) : 50

* * *

Form field: pest or weed control at 250 g/ha (one value per entry).
# System: Setaria faberi (SETFA)
# assay_comment: Biological Example 1A glasshouse assay, post-emergence application
# Format: in vivo
# test_conditions: Setaria faberi, 312 h; post-emergence, 250 g/ha, 13 days after application; read-out: Percentage phytotoxicity SETFA
Please respond with the number in % and leave the unit unwritten.

compound: CC#Cc1cc(F)c(C2C(=O)C3C(C2=O)[C@H]2CC[C@@H]3O2)c(OC)c1 (stereo partly shown) [Compound A16]
target_desc: Setaria faberi (SETFA)
pest or weed control at 250 g/ha [%]: 90

compound: CC#Cc1cc(F)c(C2C(=O)CC(CC(C)SC)CC2=O)c(OC)c1 (stereo not shown) [Compound A12]
target_desc: Setaria faberi (SETFA)
pest or weed control at 250 g/ha [%]: 0

compound: CC#Cc1cc(F)c(C2C(=O)CC3(CCOCC3)CC2=O)c(OC)c1 [Compound A14]
target_desc: Setaria faberi (SETFA)
pest or weed control at 250 g/ha [%]: 70

compound: C#Cc1cc(F)c(C2C(=O)CC3(CCOCC3)CC2=O)c(OC)c1 [Compound B2]
target_desc: Setaria faberi (SETFA)
pest or weed control at 250 g/ha [%]: 60

compound: CC#Cc1cc(F)c(C2C(=O)C(C)(C)OC(C)(C)C2=O)c(OC)c1 [Compound A10]
target_desc: Setaria faberi (SETFA)
pest or weed control at 250 g/ha [%]: 90

Query CC#Cc1cc(F)c(C2C(=O)CC(CCSC)CC2=O)c(OC)c1 (stereo not shown) [Compound A11] yields pest or weed control at 250 g/ha of 60

CC#Cc1cc(F)c(C2C(=O)CCC2=O)c(OC)c1 [Compound A9] yielded pest or weed control at 250 g/ha of 80

* * *

// pest or weed control at 30 g/ha lookup, one value per entry
# Tested on: Setaria faberi (SETFA)
# assay_comment: Biological Example 1A glasshouse assay, post-emergence application
# Format: in vivo
# test_conditions: Setaria faberi, 312 h; post-emergence, 30 g/ha, 13 days after application; read-out: Percentage phytotoxicity SETFA
# Experimental: Seeds of a variety of test plant species were sown in standard soil ** in pots. […] 13 Days after application of the test herbicide, for pre- and post-emergence, the test was evaluated visually for percentage phytotoxicity to each plant (where 100%=total damage to plant; 0%=no damage to plant). […]
Enter your answer as a number in %; do not include the unit.

Lab note: compound CC#Cc1cc(F)c(C2C(=O)CCC2=O)c(OC)c1 [Compound A9] tested on Setaria faberi (SETFA); recorded pest or weed control at 30 g/ha was 70

The compound CC#Cc1cc(F)c(C2C(=O)C3C(C2=O)[C@H]2CC[C@@H]3O2)c(OC)c1 (stereo partly shown) [Compound A16] on Setaria faberi (SETFA): pest or weed control at 30 g/ha was 70

Let me check: CC#Cc1cc(F)c(C2C(=O)CC(CCSC)CC2=O)c(OC)c1 (stereo not shown) [Compound A11] , system Setaria faberi (SETFA), measured pest or weed control at 30 g/ha is 30

Measured pest or weed control at 30 g/ha for this entry CC#Cc1cc(F)c(C2C(=O)C(C)(C)OC(C)(C)C2=O)c(OC)c1 [Compound A10] on Setaria faberi (SETFA): 70

* * *

# System: Zea mays (ZEAMX, corn, maize, e.g. volunteer corn)
# assay_comment: Biological Example 1B glasshouse assay, pre-emergence application
# Type: in vivo
# test_conditions: 250 g/ha, 13 days after application
# Description: Seeds of a variety of test plant species were sown in standard soil ** in pots. […] 13 Days after application of the test herbicide, for pre- and post-emergence, the test was evaluated visually for percentage phytotoxicity to each plant (where 100%=total damage to plant; 0%=no damage to plant). […]
parameter_measured: Percentage phytotoxicity ZEAMX (%)
Give just the number in %; leave the unit off.

Here's what some known entries look like.
compound: C#Cc1cc(F)c(C2C(=O)CC3(CCOCC3)CC2=O)c(OC)c1
unit_symbol: %
Percentage phytotoxicity ZEAMX: 50

compound: CC#Cc1cc(F)c(C2C(=O)CCC2=O)c(OC)c1
unit_symbol: %
Percentage phytotoxicity ZEAMX: 80

compound: CC#Cc1cc(F)c(C2C(=O)C3C(C2=O)[C@H]2CC[C@@H]3O2)c(OC)c1 (stereo partly drawn)
unit_symbol: %
Percentage phytotoxicity ZEAMX: 90

compound: CC#Cc1cc(F)c(C2C(=O)CC3(CCOCC3)CC2=O)c(OC)c1
unit_symbol: %
Percentage phytotoxicity ZEAMX: 30

compound: C#CCC1CC(=O)C(c2c(F)cc(C#CC)cc2OC)C1=O (stereo not drawn)
unit_symbol: %
Percentage phytotoxicity ZEAMX: 100

Read the next record carefully.
For CC#Cc1cc(F)c(C2C(=O)C(C)(C)OC(C)(C)C2=O)c(OC)c1 the compound record lists Percentage phytotoxicity ZEAMX as 50

* * *

# System: Zea mays (ZEAMX, corn, maize, e.g. volunteer corn)
# assay_comment: Biological Example 1A glasshouse assay, post-emergence application
# Format: in vivo
# test_conditions: Zea mays, 312 h; post-emergence, 250 g/ha, 13 days after application; read-out: Percentage phytotoxicity ZEAMX
parameter_measured: pest or weed control at 250 g/ha (%)
I only need the number, in %, no unit after it.

compound: CC#Cc1cc(F)c(C2C(=O)CC(CC(C)SC)CC2=O)c(OC)c1 (stereo not shown) [Compound A12]
target_desc: Zea mays (ZEAMX, corn, maize, e.g. volunteer corn)
result: 30
//
compound: CC#Cc1cc(F)c(C2C(=O)CC3(CCOCC3)CC2=O)c(OC)c1 [Compound A14]
target_desc: Zea mays (ZEAMX, corn, maize, e.g. volunteer corn)
result: 80
//
compound: CC#Cc1cc(F)c(C2C(=O)C3C(C2=O)[C@H]2CC[C@@H]3O2)c(OC)c1 (stereo partly shown) [Compound A16]
target_desc: Zea mays (ZEAMX, corn, maize, e.g. volunteer corn)
result: 100
//
compound: CC#Cc1cc(F)c(C2C(=O)CCC2=O)c(OC)c1 [Compound A9]
target_desc: Zea mays (ZEAMX, corn, maize, e.g. volunteer corn)
result: 90
//
compound: CC#Cc1cc(F)c(C2C(=O)CC(CCSC)CC2=O)c(OC)c1 (stereo not shown) [Compound A11]
target_desc: Zea mays (ZEAMX, corn, maize, e.g. volunteer corn)
result: 20

GET /value?item= C#Cc1cc(F)c(C2C(=O)CC3(CCOCC3)CC2=O)c(OC)c1 [Compound B2] &field=pest or weed control at 250 g/ha returns 40

Query CC#Cc1cc(F)c(C2C(=O)C(C)(C)OC(C)(C)C2=O)c(OC)c1 [Compound A10] yields pest or weed control at 250 g/ha of 90
